test protocol: Compound was determined for heart rate with respect to propanol
Format: functional
readout kind: Ratio
Give the value as a plain number.

Field: example entries. Status: answers known.
[[record]]
compound = "CC(C)NCC(O)COc1ccc2c(c1)[C@@H]1CCCCC[C@H]21 (some centres not stated)"
readout_kind = "Ratio"
recorded_value = 0.02

[[record]]
compound = "CC(C)(C)NCC(O)COc1cccc2c1[C@]1(O)CCCCC[C@H]21 (some centres not stated)"
readout_kind = "Ratio"
recorded_value = 0.08

[[record]]
compound = "COc1ccc(CCNCC(O)COc2cccc3c2[C@@H]2CCCCC[C@]32O)cc1OC (some centres not stated)"
readout_kind = "Ratio"
recorded_value = 0.68

[[record]]
compound = "CC(C)NCC(O)COc1cccc2c1[C@@H]1CCCCC[C@]21O (some centres not stated)"
readout_kind = "Ratio"
recorded_value = 0.8


INPUT: Given CC(C)(C)NCC(O)COc1cccc2c1[C@@H]1CCCCC[C@H]21 (some centres not stated) , state its recorded Ratio.
OUTPUT: 0.57

INPUT: Given CC(C)(C)NCC(O)COc1cccc2c1[C@@H]1CCCCC[C@]21O (some centres not stated) , state its recorded Ratio.
OUTPUT: 0.42

INPUT: Given CC(C)NCC(O)COc1cccc2c1[C@@H]1CCCCC[C@H]21 (some centres not stated) , state its recorded Ratio.
OUTPUT: 0.46
